Value source: ChEMBL document CHEMBL1201862

# Test system: UACC-62
# assay name: NCI tumour cell line growth inhibition, 48 h
The source made the active and inactive calls. Cut-off read from the data, not from the text of the source: active = GI50 up to about 1.1 µM and inactive = higher.
Listing of entries alongside the reported GI50.

Would you please look over these solved cases?
- compound: "N/C(=N\\O)N/N=C/c1ccc(O)c(O)c1"
  GI50: "> 100 µM (inactive)"
- compound: "COc1ccc2[nH]c(Cl)c(/C=C3/C(=O)Nc4cc(C)c(OC)cc43)c2c1"
  GI50: "3.55 µM (inactive)"
- compound: "C[S+]([O-])c1cc(=O)c2ccccc2s1 (centres undefined)"
  GI50: "7.31 µM (inactive)"
- compound: "COc1cc(C2c3cc4c(c(O)c3C(=O)C3CCC(=O)N32)OCO4)cc(OC)c1OC (centres undefined)"
  GI50: "30.1 µM (inactive)"
- compound: "CCOC(=O)CCC(NC(=O)Cc1ccc(Oc2nc3ccccc3nc2-c2cccs2)cc1)C(=O)OCC (centres undefined)"
  GI50: "38.4 µM (inactive)"

Which GI50 reading was recorded for the compound `C=CCN1CN(c2ccccc2)C2(CCN(CCCC3(c4ccc(F)cc4)OCCO3)CC2)C1=O` ?
18.7 µM (inactive)

Report GI50 for `CC(=O)OCC1=C(COC(C)=O)C(=O)c2c(O)ccc(O)c2C1=O` please.
5.56 µM (inactive)

Consider the compound `Nc1cc(CO)cc(Nc2c3ccccc3nc3ccccc23)c1` and give its measured GI50.
17.4 µM (inactive)

# query: GI50 of entry COC(=O)C(C(=O)C(=O)Nc1ccccc1C(C)=O)c1nc2ccc(Cl)cc2nc1O (centres undefined)
> 100 µM (inactive)

Form field: reported GI50 of `O=C(NCCc1ccc(F)cc1)c1cc(/C=C/c2cc(O)ccc2O)ccc1O`
2.12 µM (inactive)

Look up GI50: `COc1c(O)c(O)c2c(c1O)C(=O)c1cc(C)cc(O)c1C2=O`
15.3 µM (inactive)

Would you kindly share the measured GI50 for `Cc1c(C2=C(Br)C(=O)N(C)C2=O)c(=O)n(C)c(=O)n1C` ?
34.4 µM (inactive)

// query GI50 value for entry COC1=CC(=O)C2[C@H]3Cc4ccccc4[C@H]3C2(C)C1=O (some centres undefined)
> 100 µM (inactive)

# input compound: `Oc1ccc2occ3c2c1CCC3` ; wanted: its GI50
95.9 µM (inactive)

Please give the measured GI50 for this compound: `NC(=S)N/N=C1\C(=O)Nc2c(Cl)cc(Cl)cc21`
17.3 µM (inactive)

Please look up its GI50: `O=C1c2cccc3cccc(c23)C(=O)N1CCCNOCCONCCCN1C(=O)c2cccc3cccc(c23)C1=O`
> 100 µM (inactive)

Query (compound): CN1CC[C@]23c4c5ccc(O)c4OC2c2[nH]ncc2C[C@H]3[C@H]1C5 (some centres undefined) ; field requested: GI50
> 100 µM (inactive)

Reported GI50, compound `Clc1ccc(CCc2ccncn2)c(Cl)c1` : ____
53.2 µM (inactive)

Endpoint output: GI50 of O=C1CC(O)c2c(Cl)sc(Cl)c21 (centres undefined) . Value?
14.7 µM (inactive)

What does the record list as GI50 for `O=C1c2cc3ncsc3cc2C(=O)c2c(O)ccc(O)c21` ?
> 100 µM (inactive)

Looking for the measured GI50 of COC1=CC(=O)c2c(cc(COP(=O)(OCC3OC(n4cc(F)c(=O)[nH]c4=O)CC3O)N(C)CCCCCl)n2C)C1=O (centres undefined) , can you help?
0.0736 µM (active)

Name the recorded GI50 for `CC(C)(C)NC(=S)N/N=C/c1ccccn1` .
0.578 µM (active)

Consider the compound CCOC(=O)CCC(NC(=O)c1ccc(OCc2ccc3nc(-c4ccccc4)c(Cl)nc3c2)cc1)C(=O)OCC (centres undefined) and give its measured GI50.
> 31.6 µM (inactive)

Which measured GI50 value corresponds to `S=c1sc2ccccc2n1CN1CCN(Cc2ccccc2)CC1` ?
> 100 µM (inactive)

Entry under review: `CCN(CC)CCOc1ccc(CCc2cc(OC)c(OC)c(OC)c2)cc1` . Reported GI50?
26.1 µM (inactive)

What value of GI50 has been recorded for this entry: `COc1cc2c(c(O)c1C)C(=O)C(Cl)=CC2=O`
7.23 µM (inactive)

Fill blank: measured GI50 of the compound `O=C1N[C@H]2c3c(Cl)sc(Cl)c3[C@@H](O)[C@H]2O1` is ____.
> 100 µM (inactive)

Name the recorded GI50 for CCC1=CCC(P(=O)(c2ccccc2)c2ccccc2)CC1C (centres undefined) .
33.3 µM (inactive)

Quick one: GI50 for CC(=O)C(N1CCCCC1)C(O)(C(F)(F)F)C(F)(F)F (centres undefined) ?
86.9 µM (inactive)
